Parameter EC50: see the listing below.
# Experimental System: GPR40 (Homo sapiens, UniProt O14842)
# Sequence (O14842 whole entry): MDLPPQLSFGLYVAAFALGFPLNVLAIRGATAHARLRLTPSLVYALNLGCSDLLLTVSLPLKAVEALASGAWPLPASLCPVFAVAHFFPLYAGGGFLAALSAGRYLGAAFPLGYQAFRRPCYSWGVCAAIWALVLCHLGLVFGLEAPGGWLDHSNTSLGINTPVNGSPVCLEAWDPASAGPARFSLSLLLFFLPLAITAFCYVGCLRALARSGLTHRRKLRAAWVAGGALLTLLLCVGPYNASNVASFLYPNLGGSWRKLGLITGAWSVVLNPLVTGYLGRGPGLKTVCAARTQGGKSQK
# Measurement Description: Inositol phosphate accumulation assay (A9 cell line stably transfected with GPR40)
# Type: cell-based
# Design: expressed in transfected cells
# Test Context: human GPR40, A9_GPR40 cells, 1 hour at 37° C.; read-out: IP3 EC50 (inositol phosphate assay data)
Assay Readout: EC50

[[record]]
molecule = "COc1cc(-c2ccc(COc3ccc4c(c3)[C@@H](CC(=O)O)CC4)cc2[C@H]2CCCC2(C)C)c(F)cn1 (single isomer, unassigned) [Example 23]"
assay_readout = "EC50"
result = "10 to 100 nM"

[[record]]
molecule = "COc1ccc(F)c(-c2ccc(COc3ccc4c(c3)[C@@H](CC(=O)O)CC4)cc2[C@H]2CCCC2(C)C)c1 (single isomer, unassigned) [Example 22]"
assay_readout = "EC50"
result = "10 to 100 nM"

[[record]]
molecule = "CC[C@]1(CC(=O)O)CCc2ccc(OCc3ccc(-c4cc(OC)ccc4F)c([C@@H](OC)C(C)(C)C)c3)cc21 (single isomer, unassigned) [Example 45]"
assay_readout = "EC50"
result = "100 to 1000 nM"

[[record]]
molecule = "COc1cc(-c2ccc(COc3ccc4c(c3F)C(C)(CC(=O)O)CC4)cc2C2CCCC2(C)C)c(F)cn1 (stereo not drawn) [Example 40]"
assay_readout = "EC50"
result = "100 to 1000 nM"

[[record]]
molecule = "CC[C@]1(CC(=O)O)CCc2ccc(OCc3ccc(-c4cc(OC)ccc4F)c([C@H]4CCCC4(C)C)c3)cc21 (single isomer, unassigned) [Example 42]"
assay_readout = "EC50"
result = "10 to 100 nM"

[[record]]
molecule = "COc1ccc(F)c(-c2ccc(COc3ccc4c(c3)[C@@](C)(CC(=O)O)CC4)cc2[C@@H](OC)C(C)(C)C)c1 (single isomer, unassigned) [Example 36]"
assay_readout = "EC50"
result = "< 10 nM"

[[record]]
molecule = "COc1ccc(F)c(-c2c(F)cc(COc3ccc4c(c3)[C@@](C)(CC(=O)O)CC4)cc2[C@H]2CCCC2(C)C)c1 (single isomer, unassigned) [Example 35]"
assay_readout = "EC50"
result = "< 10 nM"

[[record]]
molecule = "COc1cc(-c2ccc(COc3ccc4c(c3)[C@@](C)(CC(=O)O)CC4)cc2[C@@H]2CCCC2(C)C)c(F)cn1 (single isomer, unassigned) [Example 20]"
assay_readout = "EC50"
result = "< 10 nM"

[[record]]
molecule = "COc1ccc(F)c(-c2cc(F)c(COc3ccc4c(c3)[C@@](C)(CC(=O)O)CC4)cc2[C@H]2CCCC2(C)C)c1 (single isomer, unassigned) [Example 33]"
assay_readout = "EC50"
result = "< 10 nM"

[[record]]
molecule = "CCCCOc1cc(COc2ccc3c(c2)[C@@H](CC(=O)O)CC3)ccc1-c1cc(OC)ccc1F (single isomer, unassigned) [Example 17]"
assay_readout = "EC50"
result = "1000 to 10000 nM"

[[record]]
molecule = "COc1cc(-c2ccc(COc3ccc4c(c3)[C@@](C)(CC(=O)O)CCC4)cc2[C@H]2CCCC2(C)C)c(F)cn1 (single isomer, unassigned) [Example 48]"
assay_readout = "EC50"
result = "10 to 100 nM"

[[record]]
molecule = "COc1ccc(F)c(-c2ccc(COc3ccc4c(c3)[C@](C)(CC(=O)O)CC4)cc2[C@H]2CCCC2(C)C)c1 (single isomer, unassigned) [Example 18]"
assay_readout = "EC50"
result = "10 to 100 nM"


====

Catalogue of EC50 values
# Experimental System: UniProtKB O14842
# Measurement Description: Cell-based aequorin assay (CHO cells stably transfected with GPR40 and aequorin)
# Parameters: expressed in transfected cells
# Test Context: activation of human GPR40, CHO cells, 0.01% HSA
Assay Readout: EC50

[[record]]
compound = "COc1ccc(F)c(-c2ccc(COc3ccc4c(c3)[C@H](CC(=O)O)C(C)(C)C4)cc2C(C)(C)C)c1 (single isomer, unassigned)"
result = "1 to 10 µM"

[[record]]
compound = "COc1ccc(F)c(-c2ccc(COc3ccc4c(c3)[C@@H](C(C)(C)C(=O)O)CC4)cc2C(C)(C)C)c1 (single isomer, unassigned)"
result = "0.1 to 1 µM"

[[record]]
compound = "COc1ccc(F)c(-c2ccc(COc3ccc4c(c3)[C@H](CC(=O)O)C4)cc2C(C)(C)C)c1 (single isomer, unassigned)"
result = "1 to 10 µM"

[[record]]
compound = "COc1ccc(F)c(-c2ccc(COc3ccc4c(c3)[C@@](C)(CC(=O)O)CC4)cc2[C@@H](OC)C(C)(C)C)c1 (single isomer, unassigned)"
result = "0.1 to 1 µM"

[[record]]
compound = "CC[C@]1(CC(=O)O)CCc2ccc(OCc3ccc(-c4cc(OC)ccc4F)c([C@@H](OC)C(C)(C)C)c3)cc21 (single isomer, unassigned) [Example 44]"
result = "0.1 to 1 µM"

[[record]]
compound = "COc1ccc(F)c(-c2ccc(COc3ccc4c(c3)CC[C@@H]4CC(=O)O)cc2C(C)(C)C)c1 (single isomer, unassigned) [Example 5]"
result = "1 to 10 µM"

[[record]]
compound = "COc1ccc(F)c(-c2ccc(COc3ccc4c(c3)[C@H]([C@@H](C)C(=O)O)CC4)cc2[C@H]2CCCC2(C)C)c1"
result = "0.1 to 1 µM"

[[record]]
compound = "COc1ccc(F)c(-c2ccc(COc3ccc4c(c3)CC[C@H]4CC(=O)O)cc2C(C)(C)C)c1 (single isomer, unassigned)"
result = "1 to 10 µM"

